- protocol-details: Clearance in Sprague-Dawley rat at 2 mg/kg, iv by LC/MS analysis
- Format: ADME, organism-based
- particulars: in vivo
observed-property: clearance (mL/min/kg)
// note: answer is a bare numeric in mL/min/kg

[Q] Entry Cc1cn2nc(C)c(C(=O)NCc3ccc(N4CCC(c5ccc(OC(F)(F)F)cc5)CC4)cc3)c2s1 : reported clearance = ?
[A] 8.17

* * *

- protocol-details: Clearance in Sprague-Dawley rat at 10 mg/kg, administered through oral gavage by LC/MS analysis
- Type: ADME, organism-based
- particulars: in vivo
observed-property: CL/F (mL/min/kg)
// note: answer is a bare numeric in mL/min/kg

[Q] Entry Cc1cn2nc(C)c(C(=O)NCc3ccc(N4CCC(c5ccc(OC(F)(F)F)cc5)CC4)cc3)c2s1 : reported CL/F = ?
[A] 20.2

* * *

- protocol-details: Half life in Sprague-Dawley rat at 2 mg/kg, iv by LC/MS analysis
- Assay type: ADME, organism-based
- particulars: in vivo
observed-property: half-life
Just the number plus its unit, please.

[Q] Entry Cc1cn2nc(C)c(C(=O)NCc3ccc(N4CCC(c5ccc(OC(F)(F)F)cc5)CC4)cc3)c2s1 : reported half-life = ?
[A] 846 min

* * *

- protocol-details: Tmax in Sprague-Dawley rat at 2 mg/kg, iv by LC/MS analysis
- Format: ADME, organism-based
- particulars: in vivo
observed-property: Tmax (min)
// note: answer is a bare numeric in min

[Q] Entry Cc1cn2nc(C)c(C(=O)NCc3ccc(N4CCC(c5ccc(OC(F)(F)F)cc5)CC4)cc3)c2s1 : reported Tmax = ?
[A] 4.98

* * *

- protocol-details: AUC (0 to infinity) in Sprague-Dawley rat at 10 mg/kg, administered through oral gavage by LC/MS analysis
- Assay type: ADME, organism-based
- Parameters: dose 10 mg/kg, time infinity, route oral
- particulars: in vivo
observed-property: AUC(0-inf)

[Q] Entry Cc1cn2nc(C)c(C(=O)NCc3ccc(N4CCC(c5ccc(OC(F)(F)F)cc5)CC4)cc3)c2s1 : reported AUC(0-inf) = ?
[A] 8560 ng·h/mL

* * *

- protocol-details: AUC (0 to infinity) in Sprague-Dawley rat at 2 mg/kg, iv by LC/MS analysis
- Type: ADME, organism-based
- Design: dose 2 mg/kg, time infinity, route intravenous
- particulars: in vivo
observed-property: AUC(0-inf) (ng·h/mL)
// note: answer is a bare numeric in ng·h/mL

[Q] Entry Cc1cn2nc(C)c(C(=O)NCc3ccc(N4CCC(c5ccc(OC(F)(F)F)cc5)CC4)cc3)c2s1 : reported AUC(0-inf) = ?
[A] 4110

Source: ChEMBL document CHEMBL3868613
